Form field: melting point (one value per entry).

Ask: Answer with reported melting point of CS(=O)(=O)c1cccc(C(=O)NCCN2CCC(Oc3ccc(Cl)c(Cl)c3)CC2)c1.Cl
Reply: 219 °C

----------
Form field: melting point (one value per entry).

[[record]]
structure_notation = "CS(=O)(=O)c1cccc(C(=O)NCCN2CCC(Oc3ccc(F)cc3Cl)CC2)c1"
measurement_type = "melting point"
result = "50 to 51 °C"


Ask: Answer with reported melting point of CS(=O)(=O)Cc1cccc(C(=O)NCCN2CCC(Oc3ccc(Cl)c(Cl)c3)CC2)c1
Reply: 112 to 114 °C

Ask: Answer with reported melting point of CS(=O)(=O)Cc1ccc(C(=O)NCCN2CCC(Oc3ccc(Cl)c(Cl)c3)CC2)cc1
Reply: 179 to 181 °C

Ask: Answer with reported melting point of CCn1cc(C(=O)NCCN2CCC(Oc3ccc(Cl)c(Cl)c3)CC2)c(=O)c2ccc(C)nc21
Reply: 169 to 217 °C

Ask: Answer with reported melting point of Cc1c(Cl)ccc(OC2CCN(CCNC(=O)c3ccc(S(C)(=O)=O)s3)CC2)c1Cl
Reply: 177 to 178 °C

Ask: Answer with reported melting point of O=C(Cn1nnc(N2CCCC2)n1)NCCN1CCC(Oc2ccc(Cl)c(Cl)c2)CC1
Reply: 114 to 116 °C

Ask: Answer with reported melting point of COc1cccc(C(=O)N(C)CCN2CCC(Oc3ccc(F)c(F)c3)CC2)c1.Cl
Reply: 218 °C
